- Test system: 2,2,15
- protocol-details: three days cytotoxicity bioassay against 2,2,15
- Assay type: cell-based, human
- test-conditions: human hepatoma cell line 2,2,15, three days bioassay
Listed here are compounds together with their documented Cytotoxicity IC50 2,2,15.
assay-endpoint: Cytotoxicity IC50 2,2,15 (ng/mL)

compound="CCCCCC(O)C(O)CCCCCC[C@H](O)[C@@H]1CC[C@H](CCCCCCCCCC[C@H](O)CC2=C[C@H](C)OC2=O)O1 (some centres unmarked) [Muricin B (2), Muricin B]" val=4.29
compound="CCCCCCCC(O)C(O)CC[C@H](O)[C@@H]1CC[C@H](CCCCCCCCCCCC[C@@H](O)CC2=C[C@H](C)OC2=O)O1 (some centres unmarked) [Muricin C (3), Muricin C]" val=3.87
compound="CCCCCCCC(O)C(O)CC[C@H](O)[C@@H]1CC[C@@H](CCCCCCCCCC[C@@H](O)CC2=C[C@H](C)OC2=O)O1 (some centres unmarked) [Muricin D (4), Muricin D]" val=48
compound="CCCCC(O)C(O)C/C=C\\CC[C@H](O)[C@@H]1CC[C@@H](CCCCCCCCCCCC[C@@H](O)CC2=C[C@H](C)OC2=O)O1 (some centres unmarked) [Muricin F (6), Muricin F]" val=3.86
compound="CCCCCC(O)C(O)CCCCCC[C@@H](O)[C@H]1CC[C@H](CCCCCCCCCC[C@@H](O)CC2=C[C@H](C)OC2=O)O1 (some centres unmarked) [Muricin A (1), Muricin A]" val=5.13
